Biological target: Bcl-xL (Homo sapiens, UniProt Q07817)
Construct: Measured levels of Bcl-xL protein of HCT116 cells treated with the tested compounds; host or cells: HCT116
Sequence (Q07817 whole entry): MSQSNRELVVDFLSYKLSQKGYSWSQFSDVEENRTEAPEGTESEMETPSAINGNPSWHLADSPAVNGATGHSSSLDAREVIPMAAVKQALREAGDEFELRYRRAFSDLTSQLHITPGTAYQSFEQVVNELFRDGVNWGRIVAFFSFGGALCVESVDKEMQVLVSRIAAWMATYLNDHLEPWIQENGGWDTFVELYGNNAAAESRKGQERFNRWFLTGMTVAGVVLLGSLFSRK
Assay: HCT116 Bcl-xL degradation, capillary-based immunoassay (WES)
Assay type: cell-based
Conditions: HCT116, 24 h, 9-point serial dilution
Experimental: HCT116 cells were purchased from ATCC and cultivated in RPMI 1640 supplemented with 10% heat inactivated fetal bovine serum, penicillin (100 IU/mi), streptomycin (100 μg/ml) and L-glutamine (2 mM). […] Protein concentration in the supernatants was determined using the Pierce BCA protein assay kit (Thermo Fisher Scientific). […] Signals were detected with an HRP-conjugated secondary anti-rabbit antibody (#042-206, Proteinsimple) and were quantified using Compass software (version 4.0, Proteinsimple). […]
Provide the reported DC50 of each item.
Give bare numbers, in nM.

// Cc1c(Nc2nc3ccccc3s2)nnc2c1CCCN2c1ccc(-c2cnn(CC34CC5(C)CC(C)(C3)CC(OCCN(C)CCOCCNc3cccc6c3C(=O)N(C3CCC(=O)NC3=O)C6=O)(C5)C4)c2C)c(C(=O)O)n1 (stereo not shown) : DC50 value = 10.5

Entry "Cc1ncsc1-c1ccc([C@H](C)NC(=O)[C@@H]2C[C@@H](O)CN2C(=O)[C@@H](NC(=O)CCCCCCCCCCCCCN(C)CCOC23CC4(C)CC(C)(CC(Cn5ncc(-c6ccc(N7CCCc8c7nnc(Nc7nc9ccccc9s7)c8C)nc6C(=O)N(C)C)c5C)(C4)C2)C3)C(C)(C)C)cc1" — recorded DC50 = 1.37

The reported DC50 of the compound "Cc1ncsc1-c1ccc([C@H](C)NC(=O)[C@@H]2C[C@@H](O)CN2C(=O)[C@@H](NC(=O)CCCCCCCCCCN(C)CCOC23CC4(C)CC(C)(CC(Cn5ncc(-c6ccc(N7CCCc8c7nnc(Nc7nc9ccccc9s7)c8C)nc6C(=O)O)c5C)(C4)C2)C3)C(C)(C)C)cc1" was 0.978

Attention now shifts to the item below.
The recorded DC50 for "Cc1ncsc1-c1ccc([C@H](C)NC(=O)[C@@H]2C[C@@H](O)CN2C(=O)[C@@H](NC(=O)COCCCCCCCCCN(C)CCOC23CC4(C)CC(C)(CC(Cn5ncc(-c6ccc(N7CCCc8c7nnc(Nc7nc9ccccc9s7)c8C)nc6C(=O)O)c5C)(C4)C2)C3)C(C)(C)C)cc1" is 0.155

From: patent US20240376094A2
